Every entry's value here was drawn from ChEMBL document CHEMBL1134710.

# TARGET_UNDER_TEST: Protein kinase C epsilon type (Homo sapiens, UniProt Q02156)
# Sequence (Q02156 whole entry, the tested form may be a part): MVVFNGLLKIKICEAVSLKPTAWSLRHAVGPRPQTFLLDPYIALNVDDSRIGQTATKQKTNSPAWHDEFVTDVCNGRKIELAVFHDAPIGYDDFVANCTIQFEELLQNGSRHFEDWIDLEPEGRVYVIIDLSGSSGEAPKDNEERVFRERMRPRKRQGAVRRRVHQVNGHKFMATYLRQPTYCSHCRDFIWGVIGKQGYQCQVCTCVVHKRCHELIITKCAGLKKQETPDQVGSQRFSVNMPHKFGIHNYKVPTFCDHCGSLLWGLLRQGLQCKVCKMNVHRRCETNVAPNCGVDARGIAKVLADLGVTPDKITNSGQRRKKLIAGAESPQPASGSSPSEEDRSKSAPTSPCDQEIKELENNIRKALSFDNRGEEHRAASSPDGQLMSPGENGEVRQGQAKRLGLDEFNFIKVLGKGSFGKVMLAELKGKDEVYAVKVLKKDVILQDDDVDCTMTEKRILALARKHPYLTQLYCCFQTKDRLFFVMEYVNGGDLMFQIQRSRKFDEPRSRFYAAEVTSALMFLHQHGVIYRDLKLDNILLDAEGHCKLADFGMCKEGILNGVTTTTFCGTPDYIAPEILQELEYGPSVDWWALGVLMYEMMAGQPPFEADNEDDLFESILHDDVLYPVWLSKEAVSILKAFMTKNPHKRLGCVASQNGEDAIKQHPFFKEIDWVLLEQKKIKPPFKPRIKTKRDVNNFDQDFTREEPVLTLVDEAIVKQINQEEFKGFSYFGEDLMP
# RUN_DESCRIPTION: Displacement of 3[H]PDBu from Protein kinase C epsilon C1b domain
REPORTED_ENDPOINT: Ki (nM)

[
  {
    "SMILES_TEXT": "CCCC(=O)O[C@@H]1[C@@H](C)[C@]2(O)[C@@H]3C=C(C)C(=O)[C@H]3CC(CO)=C[C@H]2[C@@H]2C(C)(C)[C@]12OC(=O)CCC",
    "REPORTED_ENDPOINT": "Ki",
    "MEASURED_NUMBER": 0.58
  }
]

----------
# TARGET_UNDER_TEST: Protein kinase C beta type (Homo sapiens, UniProt P05771)
# Sequence (P05771 whole entry, the tested form may be a part): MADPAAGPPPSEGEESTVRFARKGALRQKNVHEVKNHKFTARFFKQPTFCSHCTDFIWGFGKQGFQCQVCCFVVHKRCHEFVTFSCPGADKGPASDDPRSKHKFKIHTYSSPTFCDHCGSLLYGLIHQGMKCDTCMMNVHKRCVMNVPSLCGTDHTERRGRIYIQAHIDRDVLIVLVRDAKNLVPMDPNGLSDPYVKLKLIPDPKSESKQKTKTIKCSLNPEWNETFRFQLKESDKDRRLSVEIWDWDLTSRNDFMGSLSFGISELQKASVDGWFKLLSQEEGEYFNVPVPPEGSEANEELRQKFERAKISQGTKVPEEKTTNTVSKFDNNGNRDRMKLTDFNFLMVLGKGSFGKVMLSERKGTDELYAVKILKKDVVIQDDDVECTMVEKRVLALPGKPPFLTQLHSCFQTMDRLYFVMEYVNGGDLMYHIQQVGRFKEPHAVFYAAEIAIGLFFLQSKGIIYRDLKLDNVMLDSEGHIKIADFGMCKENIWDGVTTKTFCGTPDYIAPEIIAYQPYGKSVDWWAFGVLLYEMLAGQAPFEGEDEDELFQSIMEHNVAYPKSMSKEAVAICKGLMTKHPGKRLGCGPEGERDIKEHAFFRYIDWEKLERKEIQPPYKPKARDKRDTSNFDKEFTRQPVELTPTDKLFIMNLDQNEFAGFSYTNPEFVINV
# RUN_DESCRIPTION: Displacement of 3[H]PDBu from Protein kinase C beta C1a domain
pKi: −log10 of the molar value.

[
  {
    "SMILES_TEXT": "CCCC(=O)O[C@@H]1[C@@H](C)[C@]2(O)[C@@H]3C=C(C)C(=O)[C@H]3CC(CO)=C[C@H]2[C@@H]2C(C)(C)[C@]12OC(=O)CCC",
    "TARGET_UNDER_TEST": "Protein kinase C beta type (Homo sapiens, UniProt P05771)",
    "pKi": 8.56
  }
]

----------
# TARGET_UNDER_TEST: Protein kinase C eta type (Homo sapiens, UniProt P24723)
# Sequence (P24723 whole entry, the tested form may be a part): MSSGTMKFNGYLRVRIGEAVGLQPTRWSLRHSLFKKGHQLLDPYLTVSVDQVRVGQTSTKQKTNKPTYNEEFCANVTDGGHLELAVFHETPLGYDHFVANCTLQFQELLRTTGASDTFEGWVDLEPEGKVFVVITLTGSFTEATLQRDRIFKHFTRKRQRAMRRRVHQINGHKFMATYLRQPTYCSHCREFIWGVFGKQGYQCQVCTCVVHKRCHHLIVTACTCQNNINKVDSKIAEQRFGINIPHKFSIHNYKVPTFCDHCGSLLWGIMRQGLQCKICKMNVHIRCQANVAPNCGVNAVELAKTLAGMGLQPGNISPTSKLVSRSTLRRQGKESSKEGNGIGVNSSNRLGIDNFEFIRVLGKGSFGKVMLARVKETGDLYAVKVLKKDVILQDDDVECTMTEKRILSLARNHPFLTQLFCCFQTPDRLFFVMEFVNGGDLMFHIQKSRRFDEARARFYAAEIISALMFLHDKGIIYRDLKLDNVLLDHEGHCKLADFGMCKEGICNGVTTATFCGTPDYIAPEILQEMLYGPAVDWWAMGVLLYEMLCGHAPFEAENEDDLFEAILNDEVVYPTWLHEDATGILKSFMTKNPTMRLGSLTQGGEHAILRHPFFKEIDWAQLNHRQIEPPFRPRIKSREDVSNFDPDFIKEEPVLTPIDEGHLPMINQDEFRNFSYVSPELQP
# RUN_DESCRIPTION: Displacement of 3[H]PDBu from Protein kinase C eta C1b domain
pKi: −log10 of the molar value.
REPORTED_ENDPOINT: pKi

[
  {
    "SMILES_TEXT": "CCCC(=O)O[C@@H]1[C@@H](C)[C@]2(O)[C@@H]3C=C(C)C(=O)[C@H]3CC(CO)=C[C@H]2[C@@H]2C(C)(C)[C@]12OC(=O)CCC",
    "MEASURED_NUMBER": 9.46
  }
]

----------
# TARGET_UNDER_TEST: UniProt P17252
# RUN_DESCRIPTION: Displacement of 3[H]PDBu from Protein kinase C alpha C1a domain
pKi: −log10 of the molar value.
REPORTED_ENDPOINT: pKi

[
  {
    "SMILES_TEXT": "CCCC(=O)O[C@@H]1[C@@H](C)[C@]2(O)[C@@H]3C=C(C)C(=O)[C@H]3CC(CO)=C[C@H]2[C@@H]2C(C)(C)[C@]12OC(=O)CCC",
    "TARGET_UNDER_TEST": "UniProt P17252",
    "REPORTED_ENDPOINT": "pKi",
    "MEASURED_NUMBER": 8.39
  }
]

----------
# TARGET_UNDER_TEST: UniProtKB P05129
# RUN_DESCRIPTION: Displacement of 3[H]PDBu from Protein kinase C gamma C1b domain
pKi: −log10 of the molar value.

[
  {
    "SMILES_TEXT": "CCCC(=O)O[C@@H]1[C@@H](C)[C@]2(O)[C@@H]3C=C(C)C(=O)[C@H]3CC(CO)=C[C@H]2[C@@H]2C(C)(C)[C@]12OC(=O)CCC",
    "pKi": 8.74
  }
]

----------
# TARGET_UNDER_TEST: Protein kinase C delta type (Homo sapiens)
# Sequence (Q05655 whole entry, the tested form may be a part): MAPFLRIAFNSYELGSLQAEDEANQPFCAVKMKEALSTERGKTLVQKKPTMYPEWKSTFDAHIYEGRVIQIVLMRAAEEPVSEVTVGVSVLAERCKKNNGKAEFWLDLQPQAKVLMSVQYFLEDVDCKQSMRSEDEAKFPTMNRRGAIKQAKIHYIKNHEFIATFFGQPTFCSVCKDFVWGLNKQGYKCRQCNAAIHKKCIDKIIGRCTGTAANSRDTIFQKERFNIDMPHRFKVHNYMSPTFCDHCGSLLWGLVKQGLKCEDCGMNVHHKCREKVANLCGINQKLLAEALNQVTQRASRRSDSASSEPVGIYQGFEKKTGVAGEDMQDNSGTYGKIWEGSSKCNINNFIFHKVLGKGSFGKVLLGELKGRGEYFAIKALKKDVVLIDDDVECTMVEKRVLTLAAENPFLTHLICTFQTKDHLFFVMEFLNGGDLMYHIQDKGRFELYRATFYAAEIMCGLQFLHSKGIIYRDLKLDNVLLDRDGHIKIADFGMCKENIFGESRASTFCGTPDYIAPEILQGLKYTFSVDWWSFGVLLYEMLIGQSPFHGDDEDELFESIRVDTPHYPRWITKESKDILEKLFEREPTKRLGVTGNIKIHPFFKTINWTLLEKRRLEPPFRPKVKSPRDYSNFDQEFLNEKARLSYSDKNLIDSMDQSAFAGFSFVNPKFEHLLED
# RUN_DESCRIPTION: Displacement of 3[H]PDBu from Protein kinase C delta C1a domain

[
  {
    "SMILES_TEXT": "CCCC(=O)O[C@@H]1[C@@H](C)[C@]2(O)[C@@H]3C=C(C)C(=O)[C@H]3CC(CO)=C[C@H]2[C@@H]2C(C)(C)[C@]12OC(=O)CCC",
    "Ki (nM)": 70.2
  }
]
